Source of measurements: patent US20220177594A1

biological target: T1, ANTIBODY EXPRESSION CONTROL; test: SPR Biacore, expression control
T1 construct: also called mouse anti-canine antibody (capture reagent of the expression control ELISA)
MEASURED ATTRIBUTE: koff (s⁻¹)
Provide the reading as a plain figure in s⁻¹.

The cases that follow already have their koff on record.
BINDER: Mu_19F07_VL (SEQ ID NO: 49)_T53A (antibody, V domains shown) VH: EVKLVESEGGLVQPGSSMKLSCTASGFTFSDYYMAWVRQVPEKGLEWVANINYDGSSTYYLDSLKSRFIISRDNAKNILYLQMSSLKSEDTATYYCARGLTWDFDVWGTGTTVTVSS VL: DIVMTQSHKFMSPSVGDRVSITCKASQDVDTAVAWYQQKPGQSPKLLIYLASARHTGVPDRFTGSGSGTDFTLTISNVQSEDLADYFCQQYSRFPLTFGAGTKLELKR
MEASURED ATTRIBUTE: koff
RECORDED NUMBER: 3.75e-05
//
BINDER: Mu_10F07_VL (SEQ ID NO: 41)_T53A (antibody, V domains shown) VH: DVKLVESGEGLVKPGGSLKLSCAASGFTFSSYAMSWVRQTPEKRLEWVTYISSGGDYFYYADTVKGRFTISRDNARNTLYLQMSSLKSEDTAMYYCTRDPITGTFAYWGQGTLVTVSA VL: DIQMTQTTSSLSASLGDRVTISCRASQDITNYLNWYQQKPDGTVKLLIYYTSALHSGVPSRFSGSGSGTDFSLTISNLEQEDIATYFCQQGHMLPWTFGGGTKLEIKR
MEASURED ATTRIBUTE: koff
RECORDED NUMBER: 0.000275

Continue with the next binder.
Supply reported koff belonging to this binder: Mu_02D09_VH (SEQ ID NO: 31)_D102A (antibody, V domains shown) VH: EVQLVESGGGLVKPGGSLTLSCAASGFTFSDYGMHWLRQAPEKGLEWVAYISSGSRAVFFADTVKGRFTISRDNAKNTLFLQMTSLRSDDTAMYYCARDRYAGRGFAYWGQGTLVTVSA VL: DIVLTQSPATLSVTPGDSVSLSCRASQSISNNLHWYQQTSHESPRLLITYASQSISGIPSRFSGSGSGTDFTLSINSVETEDFGMYFCQQSNSWPLTFGAGTKLELKR 7.4e-05
